// values below are reported melting point

Reference set, count: 8
>  <molecule>
COc1ccc(N2CCN(CCn3c(=O)[nH]c4ccsc4c3=O)CC2)cc1

>  <melting point>
130 to 131 °C

$$$$
>  <molecule>
O=C(O)c1ncn2c1[C@@H]1CCN1C(=O)c1c(Br)cccc1-2

>  <melting point>
178 to 180 °C

$$$$
>  <molecule>
Cn1cc(-c2cc3cccnc3[nH]2)c2cc(-c3nn[nH]n3)ccc21

>  <melting point>
303 °C

$$$$
>  <molecule>
CC(=O)c1nn(-c2c(Cl)cc(C(F)(F)F)cc2Cl)c(NSC(F)(F)F)c1S(C)=O (stereo unspecified)

>  <melting point>
67 to 102 °C

$$$$
>  <molecule>
COc1ccc(COc2ccc(NC(C)=O)cc2C(=O)C=Cc2ccc(OCc3ccccc3)c(OCc3ccccc3)c2)cc1

>  <melting point>
145 to 146 °C

$$$$
>  <molecule>
O=C1CC=C(c2ccc(Cl)cc2)CC1

>  <melting point>
59 to 62 °C

$$$$
>  <molecule>
C=C(C)Cn1cnc2c(N)nc3ccccc3c21

>  <melting point>
290 to 294 °C

$$$$
>  <molecule>
OCc1nccn1CCc1ccccc1

>  <melting point>
75.4 °C

$$$$

// query Specify measured melting point for O=C(O)COC1(Cl)CC(c2ccccc2)=Nc2ccccc21 (stereo unspecified) .
// result 230 °C

// query Specify measured melting point for `CCC(=O)N1CCC(NC(=O)Nc2cccc(Cl)c2)CC1` .
// result 165 to 166 °C

// query Specify measured melting point for `C=CCONC(=O)c1nc(-c2ccc(Cl)c(OC)c2F)cc(N)c1Cl` .
// result 169 to 172 °C

###

// values below are reported melting point

Reference set, count: 3
>  <molecule>
COc1cc2c(Nc3ccc(Cl)cc3F)ncnc2cc1OCCOc1ccncc1

>  <melting point>
200 to 202 °C

$$$$
>  <molecule>
COCCNCc1cccc(OCCCNc2nc(N)nn2C)c1

>  <melting point>
61 to 62.5 °C

$$$$
>  <molecule>
O=C(CC(=O)N1CCOCC1)c1ccc2ccccc2c1O

>  <melting point>
128 to 130 °C

$$$$

// query Specify measured melting point for CCNC(=S)NC1CCCCc2sccc21 (stereo not given) .
// result 117 to 120 °C

// query Specify measured melting point for `CCc1cc(CSCCNC(=C[N+](=O)[O-])NC)oc1CN(C)C` .
// result 91 °C

// query Specify measured melting point for O=C(CC(O)(Cn1cncn1)c1ccc(Cl)cc1Cl)N1CC1 (stereo not given) .
// result 151 to 153 °C

###

// values below are reported melting point

// query Specify measured melting point for `Cc1ccc2cccc(OCc3cccc(N)c3C)c2n1` .
// result 223 to 227 °C

// query Specify measured melting point for `CN(c1ncccc1[N+](=O)[O-])C1CCN(Cc2ccccc2)CC1` .
// result 92 to 95 °C

// query Specify measured melting point for `O=C(O)c1cn(C2CC2)c2cc(N3CCNCC3)c(F)c(F)c2c1=O` .
// result > 300 °C

// query Specify measured melting point for CC(C#Cc1cccc(Oc2ccc(F)cc2)c1)N(O)C(N)=O (stereo not given) .
// result 137 to 138 °C

// query Specify measured melting point for `O=C(c1cc2ccccc2o1)c1ccc(O)c(Cl)c1Cl` .
// result 163 °C

###

// values below are reported melting point

Reference set, count: 4
>  <compound>
Cc1occc1COC(C)CN(O)C(N)=O (stereo not given)

>  <melting point>
101 to 102 °C

$$$$
>  <compound>
O=c1oc2c(c(O)c1C(c1ccccc1)C1CC1)CCCCC2C(O)C1CC1 (stereo not given)

>  <melting point>
88 to 90 °C

$$$$
>  <compound>
CCOC(=O)COc1cc(Cl)c2c(=O)c(-c3ccccc3C)coc2c1

>  <melting point>
122 to 123 °C

$$$$
>  <compound>
COc1ccc2[nH]c(C(=O)N3CC(CCl)c4c3cc(O)c3ncccc43)cc2c1 (stereo not given)

>  <melting point>
224 to 227 °C

$$$$

// query Specify measured melting point for `COc1ccc(-c2nc(CCCCCC(C)(C)c3nnn[nH]3)oc2-c2ccc(OC)cc2)cc1` .
// result 82 °C

###

Residues, ends and D or L forms follow the SMILES beside them. *: point of attachment. Boc = CC(C)(C)OC(=O)*
readout.label: melting point

Reference set, count: 5
>  <compound>
Cc1nnc(-c2ccc3occ(-c4ccc(S(=O)C(F)(F)F)cc4)c3c2)o1 (stereo not drawn)

>  <melting point>
183 to 184 °C

$$$$
>  <compound>
CC(C)(C)OC(=O)NCC(=O)NCC(=O)NCC(=O)O (Boc-Gly-Gly-Gly-OH)

>  <melting point>
115 to 120 °C

$$$$
>  <compound>
O=C(c1ccc(Nc2nc(-c3ccccc3)nc3ccccc23)cc1)N1CCN(c2ncc(Cc3ccccc3)cn2)CC1

>  <melting point>
> 250 °C

$$$$
>  <compound>
C=CCC(CC=C)(CC=C)c1ccc(-c2nc3cc(C#N)c(C#N)cc3n2CCC)cc1

>  <melting point>
132 to 134 °C

$$$$
>  <compound>
N#Cc1ccc(C=Cc2cc(=O)c3cc(Br)ccc3o2)cc1

>  <melting point>
275 to 276 °C

$$$$

// query Specify measured melting point for `COc1cc(N2CCCN(C)CC2)ccc1Nc1ncc2ccc(-c3ccccc3N(C)S(C)(=O)=O)n2n1` .
// result 98 to 105 °C

// query Specify measured melting point for CC(C)(C)OC(=O)N1C[C@@H]2SCCC(c3ccccc3)(c3ccccc3)[C@@H]2C1 (racemic) .
// result 162 °C

// query Specify measured melting point for `Cc1cn(C(C)(C)C(=O)N(C)c2ccccc2)nc1-c1ccccc1` .
// result 152 to 154 °C

###

readout.label: melting point

Reference set, count: 10
>  <compound>
CCCCCCCCCCCCCC(=O)Nc1ccc(Cl)c(NC2=NN(c3c(Cl)cc(Cl)cc3Cl)C(=O)C2SCc2ccccc2)c1 (stereo unspecified)

>  <melting point>
182 to 185 °C

$$$$
>  <compound>
CC(CN(C)C)On1c(=O)nc(-c2ccc3c(c2)OCO3)c2cc3c(cc21)OCO3 (stereo unspecified)

>  <melting point>
160 to 165 °C

$$$$
>  <compound>
COC1C2=C3C(=CN1OC)OCCC3CC(C(C)=O)C2 (stereo unspecified)

>  <melting point>
100 to 102 °C

$$$$
>  <compound>
O=S(=O)(F)c1c(F)nc2ccccn12

>  <melting point>
108 to 110 °C

$$$$
>  <compound>
C[C@H](NC(=O)c1c[nH]c2ncc(-c3cnn(C)c3)nc12)C(C)(C)C

>  <melting point>
296 to 297 °C

$$$$
>  <compound>
CCOC(=O)C1=C(C(=O)OCC)C(c2ccccc2[N+](=O)[O-])C(C(=O)OCC)=C(C(=O)OCC)N1

>  <melting point>
109 °C

$$$$
>  <compound>
COC(=O)C(SC)c1ccc(N2C(=O)c3ccccc3C2=O)cc1 (stereo unspecified)

>  <melting point>
168 to 169 °C

$$$$
>  <compound>
O=C(c1ccc(Cl)cc1)c1ccc(N2N=CCNC2=O)cc1Cl

>  <melting point>
158 to 159 °C

$$$$
>  <compound>
Clc1cccc(Nc2nccc(-c3ccncc3)n2)c1

>  <melting point>
167 to 168 °C

$$$$
>  <compound>
CCc1[nH]n(C2CCCC2)c2nc(Cc3ccc([N+](=O)[O-])cc3)nc(=O)c1-2

>  <melting point>
221 to 223 °C

$$$$

// query Specify measured melting point for `CC(=O)Nc1ccc2c(c1)CN(C)CC2` .
// result 157 to 159 °C

// query Specify measured melting point for `CCOC(=O)c1cc(N)nc(SCc2ccc3ccccc3c2)n1` .
// result 188 to 189 °C

// query Specify measured melting point for `Cc1c(C(=O)Nc2ccc(N3CCN(C4CCOCC4)CC3)c(C#N)c2)cnn1-c1ccc(Br)cc1` .
// result 288 °C

###

readout.label: melting point

Reference set, count: 2
>  <molecule>
C[C@@H]1Cc2ccsc2[C@H](C)N1CCNC(=O)c1ccc(F)cc1 (relative stereo)

>  <melting point>
110 to 114 °C

$$$$
>  <molecule>
Cc1cc(Nc2ccc(F)cc2)nc(Nc2ccc(S(=O)(=O)N(C)C3CCN(Cc4nccs4)CC3)cc2)n1

>  <melting point>
220 °C

$$$$

--- query ---
// query Specify measured melting point for `C=C(CC(C)C)C(=O)NCC(=O)O` .
// result 73 to 80 °C

###

// values below are reported melting point

// query Specify measured melting point for CC(C(=O)Cl)c1ccc(C(=O)c2cccs2)cc1 (stereo unspecified) .
// result 149 °C

###

readout.label: melting point

Reference set, count: 5
>  <compound>
CNC(=S)NCCOCc1c[nH]cn1

>  <melting point>
96 to 98 °C

$$$$
>  <compound>
CCOC(=O)C1=Cc2cc(S(=O)(=O)Cl)ccc2OC1C(F)(F)F (stereo not drawn)

>  <melting point>
97.2 to 98.4 °C

$$$$
>  <compound>
O=C(N[C@H]1CC[C@@H](F)CC1)OCc1ccccc1

>  <melting point>
105 to 107 °C

$$$$
>  <compound>
CN(C)c1ccc2c3c(cccc13)C(=O)c1ccccc1-2

>  <melting point>
125 to 127 °C

$$$$
>  <compound>
CCC(CC)(CC(=O)Nc1cccc(/C=C/c2nc(C3CC3)cs2)c1)C(=O)O

>  <melting point>
153 to 157 °C

$$$$

// query Specify measured melting point for COC(=O)c1c(F)cc(OCCNC(=O)C2Cc3ccccc3N2S(=O)(=O)c2ccc(-c3ccc(F)cc3)cc2)cc1F (stereo not drawn) .
// result 83 °C

// query Specify measured melting point for `O=C(CCCCN1CCCCC1)NNC(=O)N1Cc2ccccc2Oc2ccc(Cl)cc21` .
// result 126 to 128 °C

// query Specify measured melting point for `COc1cccc2c(=O)c(C#N)c(N)oc12` .
// result 300 °C

// query Specify measured melting point for `COc1ccc(C(=O)Nc2cc([N+](=O)[O-])ccc2Br)cc1OC` .
// result 183 to 184 °C

// query Specify measured melting point for `O=C(O)[C@H]1NCC[C@@H](O)[C@@H]1O` .
// result 253 to 260 °C

// query Specify measured melting point for `CC(C)(C)OC(=O)N1CCC2(CC1)CC(CCc1ccccc1)=NO2` .
// result 121 to 124 °C

// query Specify measured melting point for `CC(C)OC(N)=C(C#N)C(=N)S` .
// result 170 °C

// query Specify measured melting point for `CCCCCCCCOc1ccc(-c2ccc(O)cc2)cc1` .
// result 154 °C

// query Specify measured melting point for `Fc1ccc(Cn2ccc3cc(Br)ccc32)cc1` .
// result 57 to 58 °C

// query Specify measured melting point for `CCOC(=O)NCCOc1ccc(Oc2cccc(Cl)c2)cc1` .
// result 45 to 46 °C

// query Specify measured melting point for `COc1c(OC(C)=O)ccc2cc[nH]c12` .
// result 241 to 244 °C

// query Specify measured melting point for Cc1c(C)c2c(c(C)c1NCc1ccccc1)C(c1cccc(C3OCCO3)c1)CO2 (stereo not drawn) .
// result 97 to 99 °C

// query Specify measured melting point for `COc1cc([N+](=O)[O-])cnc1Cl` .
// result 40 to 41 °C

// query Specify measured melting point for CC(SN1C(=O)CCC1=O)c1ccccc1 (stereo not drawn) .
// result 121 to 125 °C

// query Specify measured melting point for CN1CCN(C(=O)CC2CN=C(c3cc4cccc(N(C)S(=O)(=O)c5cccs5)c4[nH]3)S2)CC1 (stereo not drawn) .
// result 151 to 153 °C

// query Specify measured melting point for CC(C)N(CCC(CCN(C)C)(C(N)=O)c1ccc(F)cc1)C(C)C (stereo not drawn) .
// result 78 to 80 °C

// query Specify measured melting point for `O=C(c1ccc(F)cc1)C1CCN(CCCn2c(=O)sc3ccccc32)CC1` .
// result 83 °C

// query Specify measured melting point for `Nc1ccccc1C(=O)Nc1cc2c(cc1F)OCC(=O)N2` .
// result 251 to 252 °C

Reference for the values: a melting point compilation (Tetko et al.; mined from patent text by program, amines drawn as free bases though some values may be those of a salt)
